Molecular target: T1, human Claudin18.2 (Homo sapiens, UniProt P56856)
T1 construct: expressed in transfected cells
Experiment: Cell-based ELISA affinity of humanized antibodies on L929-Claudin18.2 (human) cells
Assay type: binding
Details: L929-Claudin18.2 cells
measuredAttribute: Affinity detected by cell-based ELISA (EC50, ng/mL) L929-Claudin18.2

Exercise: Give the measured Affinity detected by cell-based ELISA (EC50, ng/mL) L929-Claudin18.2 of 25C7A5-HZ2: humanized anti-Claudin18.2 antibody, VH SEQ ID NO: 3, VL SEQ ID NO: 2, human IgG1/Kappa constant regions (antibody, V domains shown, human IgG1/kappa constant regions) VH: QVQLVESGAEVKKPGSSVKVSCKASGYTFTNYWLHWVRQAPGQGLEWMGMMHPISGSSNYAQKFQGRATLTVDKSTSTAYMELSSLRSEDTAVYYCARGLLSAMDYWGQGTLVTVSS VL: EIVLTQSPATLSLSPGERATLSCKASENVKTYVSWYQQKPGQSPRLLIYEASNRYTGVPARFSGSGSATDFTLTISSLEPEDFAVYFCGQTYSFPPTFGQGTKVEIK .
Solution: 14.80 ± 3.1(N = 2) ng/mL
